Recorded values, source ChEMBL document CHEMBL4393701.

Readings of MIC for the listed compounds
Tested on: Penicillium ochrochloron
Test: Antifungal activity against Penicillium ochrochloron ATCC 9112 after 72 hrs by microdilution technique
Assay type: functional
Conditions: ATCC 9112, 72 h

## Input # MIC lookup, item CC1(C)c2ssc(=S)c2-c2ccccc2N1C(=O)CSC1=NCCS1
## Output 3.53 ×10⁻² mM

## Input And what about the compound COc1cc2c(c([N+](=O)[O-])c1)NC(C)(C)c1ssc(=S)c1-2 ?
## Output 4.41 ×10⁻² mM

Next:
## Input Param item = CCOc1ccc2c(c1)-c1c(ssc1=S)C(C)(C)N2 ; retrieve measured MIC.
## Output 0.79 ×10⁻² mM

* * *

Test system: Escherichia coli
Assay: Bactericidal activity against Escherichia coli ATCC 35210 incubated for 24 hrs followed by re-plating on tryptic soy broth
Type: functional
Details: ATCC 35210, 24 h
experimental readout: MBC

## Input // returns reported MBC for input CC1(C)S[C@@H]2[C@H](NC(=O)[C@H](N)c3ccccc3)C(=O)N2[C@H]1C(=O)O
## Output 1240 µM

## Input Another compound to look at: COc1cc2c(c([N+](=O)[O-])c1)NC(C)(C)c1ssc(=S)c1-2
## Output 176 µM

## Input CC1(C)c2ssc(=S)c2-c2ccccc2N1C(=O)CSC1=NCCS1 ?
## Output 141 µM

## Input Param item: CC1(C)c2ssc(=S)c2-c2ccccc2N1C(=O)CN1C(=O)CCC1=O
## Output 74.2 µM

New cases:
## Input May I ask what MBC has been recorded for Cc1ccc2c(c1)-c1c(ssc1=S)C(C)(C)N2C(=O)CSc1nn(-c2ccccc2)c(=S)s1 ?
## Output 55 µM

## Input Try this compound too: Cc1ccc2c(c1)-c1c(ssc1=S)C(C)(C)N2C(=O)c1cccnc1
## Output 0.6 µM

## Input Next record, please: CN[C@@H]1[C@H](O[C@H]2[C@H](O[C@H]3[C@H](O)[C@@H](O)[C@H](N=C(N)N)[C@@H](O)[C@@H]3N=C(N)N)O[C@@H](C)[C@]2(O)C=O)O[C@@H](CO)[C@H](O)[C@H]1O
## Output 344 µM

## Input Param item: CC1(C)c2ssc(=S)c2-c2cccc3c2N1C(=O)/C3=N/NC(N)=S
## Output 76.4 µM

## Input Ok, now COc1ccc2c(c1)-c1c(ssc1=S)C(C)(C)N2C(=O)CSc1nc2ccccc2s1
## Output 59.7 µM

## Input What do you get for CCOc1ccc2c(c1)-c1c(ssc1=S)C(C)(C)N2C(=O)c1ccc(Cl)c([N+](=O)[O-])c1 ?
## Output 60.9 µM

## Input Same for COc1cc2c3c(c1)-c1c(ssc1=S)C(C)(C)N3C(=O)/C2=C1\SC(=S)NC1=O
## Output 129 µM

## Input Please give the result for CCOc1ccc2c(c1)-c1c(ssc1=S)C(C)(C)N2 too.
## Output 59 µM

* * *

MBC values by entry
Test system: Listeria monocytogenes
Assay: Bactericidal activity against Listeria monocytogenes NCTC 7973 incubated for 24 hrs followed by re-plating on tryptic soy broth
Assay type: functional
Details: NCTC 7973, 24 h
Record the result as a number with its unit.

Example entries begin here.
## Input Item COc1ccc2c(c1)-c1c(ssc1=S)C(C)(C)N2C(=O)CSc1nc2ccccc2s1 has what recorded MBC?
## Output 59.7 µM

## Input Next entry: CC1(C)c2ssc(=S)c2-c2cccc3c2N1C(=O)/C3=N/NC(N)=S
## Output 76.4 µM

## Input Entry to check: CC1(C)S[C@@H]2[C@H](NC(=O)[C@H](N)c3ccccc3)C(=O)N2[C@H]1C(=O)O
## Output 744 µM

New cases:
## Input Item under review: CN[C@@H]1[C@H](O[C@H]2[C@H](O[C@H]3[C@H](O)[C@@H](O)[C@H](N=C(N)N)[C@@H](O)[C@@H]3N=C(N)N)O[C@@H](C)[C@]2(O)C=O)O[C@@H](CO)[C@H](O)[C@H]1O . Reported MBC?
## Output 516 µM

## Input For CCOc1ccc2c(c1)-c1c(ssc1=S)C(C)(C)N2 then?
## Output 59 µM

## Input Cool, now Cc1ccc2c(c1)-c1c(ssc1=S)C(C)(C)N2C(=O)c1cccnc1
## Output 0.6 µM

## Input // same read-out, input: COc1cc2c(c([N+](=O)[O-])c1)NC(C)(C)c1ssc(=S)c1-2
## Output 352 µM

## Input Try this compound next: CCOc1ccc2c(c1)-c1c(ssc1=S)C(C)(C)N2C(=O)c1ccc(Cl)c([N+](=O)[O-])c1
## Output 60.9 µM

## Input How about this compound: Cc1ccc2c(c1)-c1c(ssc1=S)C(C)(C)N2C(=O)CSc1nn(-c2ccccc2)c(=S)s1
## Output 55 µM

## Input Again, but for COc1cc2c3c(c1)-c1c(ssc1=S)C(C)(C)N3C(=O)/C2=C1\SC(=S)NC1=O
## Output 517 µM

## Input Item: CC1(C)c2ssc(=S)c2-c2ccccc2N1C(=O)CN1C(=O)CCC1=O
## Output 74.2 µM

## Input Quick one: CC1(C)c2ssc(=S)c2-c2ccccc2N1C(=O)CSC1=NCCS1
## Output 141 µM

* * *

Test system: Aspergillus ochraceus
Test: Fungicidal activity against Aspergillus ochraceus ATCC 12066 incubated for 72 hrs followed by sub-culturing on broth malt medium and measured after 72 hrs
Assay type: functional
Details: ATCC 12066, 72 h
experimental readout: log10(MFC) (log10 of the value in ×10⁻² mM)
Annotation: log10 of MFC, ×10⁻² mM basis.

Consider the following illustrative entries.
## Input Param readout = log10(MFC); param system = Aspergillus ochraceus; param query = CC1(C)c2ssc(=S)c2-c2ccccc2N1C(=O)CSC1=NCCS1 ; response: value
## Output 0.55

## Input CC(=O)N1CCN(c2ccc(OCC3COC(Cn4ccnc4)(c4ccc(Cl)cc4Cl)O3)cc2)CC1 (configuration not stated) [KETOCONAZOLE] ?
## Output 1.98

Others:
## Input Short answer please: log10(MFC), Aspergillus ochraceus, entry c1ccc(-c2ccc(C(c3ccccc3)n3ccnc3)cc2)cc1 (configuration not stated) [BIFONAZOLE]
## Output 1.90

## Input Another molecule to look at: CC1(C)c2ssc(=S)c2-c2ccccc2N1C(=O)CN1C(=O)CCC1=O
## Output 1.47

## Input Repeat for the following molecule: CCOc1ccc2c(c1)-c1c(ssc1=S)C(C)(C)N2
## Output 1.37

## Input Could you do the same for CC1(C)c2ssc(=S)c2-c2cccc3c2N1C(=O)/C3=N/NC(N)=S , please?
## Output 1.49

## Input What do you have for Cc1ccc2c(c1)-c1c(ssc1=S)C(C)(C)N2C(=O)c1cccnc1 ?
## Output 1.49

* * *

Test system: Penicillium cyclopium
Test: Fungicidal activity against Penicillium verrucosum var. cyclopium food isolate incubated for 72 hrs followed by sub-culturing on broth malt medium and measured after 72 hrs
Format: functional
MFC under 60 ×10⁻² mM gets MET, anything at or over 60 ×10⁻² mM gets NOT MET.

Check out these entries, answers already filled in.
## Input Please check: MFC for CC1(C)c2ssc(=S)c2-c2cccc3c2N1C(=O)/C3=N/NC(N)=S , strictly under 60 ×10⁻² mM or not?
## Output MET

## Input Now this one: CC(=O)N1CCN(c2ccc(OCC3COC(Cn4ccnc4)(c4ccc(Cl)cc4Cl)O3)cc2)CC1 (stereo not given) [KETOCONAZOLE]
## Output MET

## Input Try Cc1ccc2c(c1)-c1c(ssc1=S)C(C)(C)N2C(=O)c1cccnc1 next.
## Output MET

## Input And what about the compound c1ccc(-c2ccc(C(c3ccccc3)n3ccnc3)cc2)cc1 (stereo not given) [BIFONAZOLE] ?
## Output NOT MET

Others:
## Input I wonder whether COc1cc2c3c(c1)-c1c(ssc1=S)C(C)(C)N3C(=O)/C2=C1\SC(=S)NC1=O has MFC below 60 ×10⁻² mM. Can you tell?
## Output MET

* * *

Test system: Micrococcus flavus
Test: Bactericidal activity against Micrococcus flavus ATCC 10240 incubated for 24 hrs followed by re-plating on tryptic soy broth
Format: functional
Conditions: ATCC 10240, 24 h
experimental readout: log10 of MBC (log10 of the value in µM)
Log scale reminder: MBC in µM, then log10 taken.

Sample answers from the record:
## Input Using the record for CC1(C)c2ssc(=S)c2-c2ccccc2N1C(=O)CSC1=NCCS1 , report its log10 of MBC.
## Output 2.15

## Input // same read-out, input: COc1ccc2c(c1)-c1c(ssc1=S)C(C)(C)N2C(=O)CSc1nc2ccccc2s1
## Output 1.78

## Input Also, Cc1ccc2c(c1)-c1c(ssc1=S)C(C)(C)N2C(=O)c1cccnc1 please.
## Output -0.22

## Input Try CC1(C)c2ssc(=S)c2-c2cccc3c2N1C(=O)/C3=N/NC(N)=S next.
## Output 1.88

## Input Field entry: Cc1ccc2c(c1)-c1c(ssc1=S)C(C)(C)N2C(=O)CSc1nn(-c2ccccc2)c(=S)s1
## Output 1.74

## Input And what about the compound CN[C@@H]1[C@H](O[C@H]2[C@H](O[C@H]3[C@H](O)[C@@H](O)[C@H](N=C(N)N)[C@@H](O)[C@@H]3N=C(N)N)O[C@@H](C)[C@]2(O)C=O)O[C@@H](CO)[C@H](O)[C@H]1O ?
## Output 2.24

Lab note: next compound to report on.
## Input Can you look up the measured log10 of MBC of CCOc1ccc2c(c1)-c1c(ssc1=S)C(C)(C)N2 for me?
## Output 1.77
